This collection of values is drawn from paper PMC7193450.

- Measurement description: Pharmacokinetic interaction in vivo in rats
- Assay context: Wistar, rat, plasma, iv, 45 mg/kg, T1/2β, of imipenem, i.v., imipenem + cilastatin, 45 mg/kg for both
Readout type: half-life (h)
Report as a plain number; the unit h is understood.

input: Can you share its half-life? I mean this molecule: C[C@@H](O)[C@H]1C(=O)N2C(C(=O)O)=C(SCCN=CN)C[C@H]12
output: 1.03

* * *

- Assay target: UniProtKB Q4U2R8
- Sequence (Q4U2R8 1-563): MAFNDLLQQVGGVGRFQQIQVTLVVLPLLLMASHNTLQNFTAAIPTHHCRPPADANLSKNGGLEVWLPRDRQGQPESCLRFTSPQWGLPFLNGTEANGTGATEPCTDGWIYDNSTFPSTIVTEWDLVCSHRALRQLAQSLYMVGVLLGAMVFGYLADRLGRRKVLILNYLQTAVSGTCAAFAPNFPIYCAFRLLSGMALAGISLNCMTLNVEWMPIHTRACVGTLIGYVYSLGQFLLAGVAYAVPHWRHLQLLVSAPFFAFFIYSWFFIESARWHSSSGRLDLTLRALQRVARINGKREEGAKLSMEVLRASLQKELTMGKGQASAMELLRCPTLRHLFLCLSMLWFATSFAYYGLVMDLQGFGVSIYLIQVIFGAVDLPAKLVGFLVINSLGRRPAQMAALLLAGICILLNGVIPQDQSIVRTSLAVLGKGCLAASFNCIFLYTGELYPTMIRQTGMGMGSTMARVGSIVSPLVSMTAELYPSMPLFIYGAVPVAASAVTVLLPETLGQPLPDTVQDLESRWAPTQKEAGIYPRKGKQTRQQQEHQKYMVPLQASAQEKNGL
- Measurement description: In vitro transporter uptake assay in hOAT1-HEK293 cells
- Assay context: human, pH 7.4
Readout type: Km at 1 min (µM)
All answers are understood in µM, so give the number only.

input: Field request: Km at 1 min | item: C[C@@H](O)[C@H]1C(=O)N2C(C(=O)O)=C(SCCN=CN)C[C@H]12
output: 631
